# target of assay: human BRD4 bromodomain II (Homo sapiens, UniProt O60885)
# Construct: human BRD4 bromodomain II [based on Genbank NM_058243, residues 349-460]; host or cells: E. coli
# assay name: Bromodomain binding assay (AlphaScreen), BRD4 BDII
# experimental setup: AlphaScreen assay, Table C2; read-out: BRD4 BDII IC50
pIC50: −log10 of the molar value.
metric name: pIC50

Some solved cases for reference:
molecule | pIC50
CN1CCN(c2cc(-c3cc(F)cc(-c4ccc(N5CCN(C)C5=O)c(Cl)c4)c3O)ccn2)CC1 [Example 441] | 8.00 to 9.00
Cn1ccn(-c2c(F)cc(-c3cc(F)cc(-c4ccnc(N5CCNCC5)c4)c3O)cc2Cl)c1=O [Example 436] | 8.00 to 9.00
Cn1ccn(-c2ccc(-c3cc(F)cc(-c4ccnc(N5CCC[C@@H](O)C5)c4)c3O)cc2Cl)c1=O [Example 622] | 8.00 to 9.00
CC(=O)Nc1ccc(-c2cccc(-c3cccc(OC4CCC4)c3)c2O)cc1F [Example 114] | < 7.00
CN1CCN(c2cc(-c3cc(F)cc(-c4ccc(-n5ccn(C)c5=O)c(Cl)c4)c3O)ccn2)CC1 [Example 430] | 9.00 to 11.00

Exercise: Give me measured pIC50, please, for this molecule: CN1CCCC12CCN(c1cc(-c3cc(F)cc(-c4ccc(-n5ccn(C)c5=O)c(Cl)c4)c3O)cn(C)c1=O)C2 (stereo not shown) [Example 696]
Key: 9.00 to 11.00

Exercise: Give me measured pIC50, please, for this molecule: CC1CN(c2cc(-c3cccc(-c4ccc(N5CCCC5=O)c(Cl)c4)c3O)ccn2)CC(C)N1 (stereo not shown) [Example 267]
Key: 8.00 to 9.00

====

# System: human SKM-1 acute myeloid leukemia cells
# assay name: SKM-1 antiproliferation cell-based assay (ATPlite)
# experimental setup: Homo sapiens, SKM-1, 96 h, SKM-1 antiproliferation assay, 4 days, Table C2
metric name: GI50

Some solved cases for reference:
compound | target of assay | GI50
CC#Cc1ncc(-c2cc(F)cc(-c3ccc(N4CCN(C)C4=O)c(Cl)c3)c2O)cc1N1CCNCC1 [Example 403] | human SKM-1 acute myeloid leukemia cells | 0.3 to 30 nM
CN[C@H]1CCCN(c2cncc(-c3cc(F)cc(-c4ccc(-n5ccn(C)c5=O)c(Cl)c4)c3O)c2)C1 [Example 478] | human SKM-1 acute myeloid leukemia cells | 0.3 to 30 nM
Cn1ccn(-c2ccc(-c3cc(F)cc(-c4ccnc(N5CCN[C@H](CN)C5)c4)c3O)cc2Cl)c1=O [Example 680] | human SKM-1 acute myeloid leukemia cells | 30 to 300 nM
CN1CCN(c2cc(-c3cc(F)cc(-c4ccc(N5CCN(C)C5=O)c(Cl)c4)c3O)ccn2)CC1 [Example 441] | human SKM-1 acute myeloid leukemia cells | 30 to 300 nM
Cn1ccn(-c2ccc(-c3cc(F)cc(-c4ccnc(N5CCC(N)CC5)c4)c3O)cc2Cl)c1=O [Example 414] | human SKM-1 acute myeloid leukemia cells | 30 to 300 nM
Cn1ccn(-c2ccc(-c3cc(F)cc(-c4ccc(C(F)F)c(N5CCN(C(C)(C)C)CC5)c4)c3O)cc2Cl)c1=O [Example 813] | human SKM-1 acute myeloid leukemia cells | 30 to 300 nM

// moving on: another record for GI50
Exercise: Give me measured GI50, please, for this compound: Cc1cccn(-c2ccc(-c3cc(F)cc(-c4ccnc(N5CCNCC5)c4)c3O)cc2Cl)c1=O [Example 496]
Key: ≥ 3000 nM

====

# Tested on: human SKM-1 acute myeloid leukemia cells
# assay name: SKM-1 antiproliferation cell-based assay (ATPlite)
# experimental setup: Homo sapiens, SKM-1, 96 h, SKM-1 antiproliferation assay, 4 days, Table C2
Measured GI50, listed per entry for reference.

compound | metric name | value measured
CN1CCN(c2ccc(-c3cccc(-c4cncc(N5CC6(CNC6)C5)c4)c3O)cc2Cl)C1=O | GI50 | 300 to 3000 nM
CNC1CCN(c2cncc(-c3cc(F)cc(-c4ccc(-n5ccn(C)c5=O)c(Cl)c4)c3O)c2)CC1 | GI50 | 0.3 to 30 nM
Cn1ccn(-c2ccc(-c3cc(F)cc(-c4cnnc(N5CC[C@](C)(O)C5)c4)c3O)cc2Cl)c1=O | GI50 | 30 to 300 nM
Cn1ccn(-c2ccc(-c3cc(F)cc(-c4ccnc(N5CCN(CCO)CC5)c4)c3O)cc2Cl)c1=O | GI50 | 0.3 to 30 nM
Cn1ccn(-c2ccc(-c3cc(F)cc(-c4cncc(N5CC6CCC(C5)N6)c4)c3O)cc2Cl)c1=O | GI50 | 0.3 to 30 nM
CN1CCC2CN(c3cc(-c4cc(F)cc(-c5ccc(-n6ccn(C)c6=O)c(Cl)c5)c4O)ccn3)CC21 (centres unmarked) | GI50 | 0.3 to 30 nM
CN1CCN(c2ccc(-c3cc(F)cc(-c4cnc(N5CCCC5)c(N5CCNCC5)c4)c3O)cc2Cl)C1=O | GI50 | 30 to 300 nM
CN[C@H]1CCN(c2cc(-c3cc(F)cc(-c4ccc(-n5ccn(C)c5=O)c(Cl)c4)c3O)cc3[nH]ncc23)C1 | GI50 | 0.3 to 30 nM

Exercise: Supply GI50 measured with human SKM-1 acute myeloid leukemia cells for Cc1cc(-c2cc(F)cc(-c3ccc(-n4ccn(C)c4=O)c(Cl)c3)c2O)cc(N2CC[C@H](N)C2)n1 .
Key: 0.3 to 30 nM

Exercise: Supply GI50 measured with human SKM-1 acute myeloid leukemia cells for O=C1NCCCN1c1ccc(-c2cccc(-c3ccnc(N4CCNCC4)c3)c2O)cc1Cl .
Key: 300 to 3000 nM

Exercise: Supply GI50 measured with human SKM-1 acute myeloid leukemia cells for C[C@@H]1CN(c2cc(-c3cc(F)cc(-c4ccc(-n5ccn(C)c5=O)c(Cl)c4)c3O)cc3[nH]cnc23)CCN1 .
Key: 0.3 to 30 nM

Exercise: Supply GI50 measured with human SKM-1 acute myeloid leukemia cells for C[C@@H]1CN(c2cc(-c3cc(F)cc(-c4ccc(-n5ccn(C)c5=O)c(Cl)c4)c3N)ccn2)CCN1 .
Key: 30 to 300 nM

Exercise: Supply GI50 measured with human SKM-1 acute myeloid leukemia cells for Cn1ccn(-c2ccc(-c3cc(F)cc(-c4ccnc(N5CCNC(CCO)C5)c4)c3O)cc2Cl)c1=O (centres unmarked) .
Key: 0.3 to 30 nM

====

Measured GI50, listed per entry for reference.
# Test system: human SKM-1 acute myeloid leukemia cells
# assay name: SKM-1 antiproliferation cell-based assay (ATPlite)
# experimental setup: Homo sapiens, SKM-1, 96 h, SKM-1 antiproliferation assay, 4 days, Table C2

Some solved cases for reference:
compound | target of assay | metric name | value measured
Cn1ccn(-c2ccc(-c3cc(F)cc(-c4cncc(N5CCC[C@H](N)C5)c4)c3O)cc2Cl)c1=O | human SKM-1 acute myeloid leukemia cells | GI50 | 0.3 to 30 nM
Cn1ccn(-c2ccc(-c3cc(F)cc(-c4ccnc(N5CCC(C)(C(=O)O)C5)c4)c3O)cc2Cl)c1=O (stereo not drawn) | human SKM-1 acute myeloid leukemia cells | GI50 | 300 to 3000 nM

// moving on: another record for GI50
Exercise: Give me measured GI50, please, for this compound: Cn1ccn(-c2ccc(-c3cc(F)cc(-c4ccnc(N5CCN[C@H](CC(N)=O)C5)c4)c3O)cc2Cl)c1=O
Key: 0.3 to 30 nM

====

# target of assay: human BRD4 bromodomain II (Homo sapiens, UniProt O60885)
# Construct: human BRD4 bromodomain II [based on Genbank NM_058243, residues 349-460]; host or cells: E. coli
# assay name: Bromodomain binding assay (AlphaScreen), BRD4 BDII
# experimental setup: AlphaScreen assay, Table C2; read-out: BRD4 BDII IC50
Measured IC50, listed per entry for reference.

Some solved cases for reference:
smiles structure | IC50
CN[C@H]1CCN(c2cc(-c3cc(F)cc(-c4ccc(-n5ccn(C)c5=O)c(Cl)c4)c3O)cc(NC(C)=O)n2)C1 | 1 to 10 nM
CC(=O)Nc1ccc(-c2cccc(-c3ccc(NC(C)=O)nc3)c2O)cn1 | > 100 nM
CC(=O)Nc1ccc(-c2cccc(-c3ccc4c(c3)CCCO4)c2O)cc1F | > 100 nM

// moving on: another record for IC50
Exercise: Supply IC50 measured with human BRD4 bromodomain II (Homo sapiens, UniProt O60885) for O=C1CCCN1c1ccc(-c2cccc(-c3cncc(N4CCNCC4)c3)c2O)cc1Cl .
Key: 1 to 10 nM

====

# System: human SKM-1 acute myeloid leukemia cells
# assay name: SKM-1 antiproliferation cell-based assay (ATPlite)
# experimental setup: Homo sapiens, SKM-1, 96 h, SKM-1 antiproliferation assay, 4 days, Table C2
Measured GI50, listed per entry for reference.

Some solved cases for reference:
compound | target of assay | value measured
O=c1n(-c2ccc(-c3cc(F)cc(-c4ccnc(N5CCNCC5)c4)c3O)cc2Cl)ccn1C(F)F | human SKM-1 acute myeloid leukemia cells | 300 to 3000 nM
Cn1ccn(-c2ccc(-c3cc(F)cc(-c4ccnc(N5CC6CC6(N)C5)c4)c3O)cc2Cl)c1=O (centres unmarked) | human SKM-1 acute myeloid leukemia cells | 30 to 300 nM

Exercise: Give me measured GI50, please, for this compound: CN1CCN(c2ccc(-c3cccc(-c4cc(C#N)cc(N5CCNCC5)c4)c3O)cc2Cl)C1=O
Key: 30 to 300 nM

Exercise: Give me measured GI50, please, for this compound: Cn1ccn(-c2ccc(-c3cc(F)cc(-c4ccnc(N5CC[C@@H](O)[C@H](N)C5)c4)c3O)cc2Cl)c1=O
Key: 30 to 300 nM

Exercise: Give me measured GI50, please, for this compound: Cn1ccn(-c2ccc(-c3cc(F)cc(-c4ccnc(N5CCC6(CCCN6)C5)c4)c3O)cc2Cl)c1=O (centres unmarked)
Key: 0.3 to 30 nM

Exercise: Give me measured GI50, please, for this compound: Cn1ccn(-c2ccc(-c3cc(F)cc(-c4cc(N5CCOCC5)c5cn[nH]c5c4)c3O)cc2Cl)c1=O
Key: 30 to 300 nM

Exercise: Give me measured GI50, please, for this compound: Cc1cc(-c2cncc(N3CCN[C@H](C)C3)c2)c(O)c(-c2ccc(-n3ccn(C)c3=O)c(F)c2)c1
Key: 0.3 to 30 nM

Exercise: Give me measured GI50, please, for this compound: Cn1ccn(-c2ccc(-c3cc(F)cc(-c4ccc(Cl)c(N5CCN(C(C)(C)C)CC5)c4)c3O)cc2Cl)c1=O
Key: 0.3 to 30 nM

Exercise: Give me measured GI50, please, for this compound: CC(=O)Nc1ccc(-c2cccc(-c3cc(N)nc(N4CCNCC4)c3)c2O)cc1F
Key: 30 to 300 nM

Exercise: Give me measured GI50, please, for this compound: Cc1cc(-c2ccnc(N3CCN[C@H](C)C3)c2)c(O)c(-c2ccc(-n3ccn(C)c3=O)c(Cl)c2)c1
Key: 0.3 to 30 nM

Exercise: Give me measured GI50, please, for this compound: O=C1OCCN1c1ccc(-c2cc(F)cc(-c3ccnc(N4CCNCC4)c3)c2O)cc1Cl
Key: 300 to 3000 nM

Exercise: Give me measured GI50, please, for this compound: O=C1CCCN1c1ccc(-c2cc(F)cc(-c3ccnc(N4CC5(CNC5)C4)c3)c2O)cc1F
Key: 300 to 3000 nM

Exercise: Give me measured GI50, please, for this compound: Cc1ncc(-c2cc(F)cc(-c3ccc(-n4ccn(C)c4=O)c(Cl)c3)c2O)cc1N1CC(C)(O)C1
Key: 0.3 to 30 nM

Exercise: Give me measured GI50, please, for this compound: CN1CCN(c2ccc(-c3cc(F)cc(-c4ccnc(N5CC6(CNC6)C5)c4)c3O)cc2Cl)C1=O
Key: 300 to 3000 nM

Exercise: Give me measured GI50, please, for this compound: Cc1cc(-c2ccc(-n3ccn(C)c3=O)c(Cl)c2)c(O)c(-c2cc(N3CCN[C@H](C)C3)c3cc[nH]c3c2)c1
Key: 0.3 to 30 nM

Exercise: Give me measured GI50, please, for this compound: CNC1(c2cccc(-c3cc(F)cc(-c4ccc(-n5ccn(C)c5=O)c(Cl)c4)c3O)c2)CC1
Key: 30 to 300 nM

Exercise: Give me measured GI50, please, for this compound: Cn1ccn(-c2ccc(-c3cc(F)cc(-c4ccnc(N5CCNC(c6ccccc6)C5)c4)c3O)cc2Cl)c1=O (centres unmarked)
Key: 30 to 300 nM

Exercise: Give me measured GI50, please, for this compound: CN1CCN(c2ccc(-c3cc(F)cc(-c4ccnc(N5CCNCC5)c4)c3N)cc2Cl)C1=O
Key: 30 to 300 nM

Exercise: Give me measured GI50, please, for this compound: CCC[C@@H]1CN(c2cc(-c3cc(F)cc(-c4ccc(-n5ccn(C)c5=O)c(Cl)c4)c3O)cc3[nH]ncc23)CCN1
Key: 0.3 to 30 nM

Exercise: Give me measured GI50, please, for this compound: Cn1ccn(-c2ccc(-c3cc(F)cc(-c4ccnc(N5CCCN(C(C)(C)C)CC5)c4)c3O)cc2Cl)c1=O
Key: 0.3 to 30 nM

Exercise: Give me measured GI50, please, for this compound: Cc1ncc(-c2cc(F)cc(-c3ccc(-n4ccn(C)c4=O)c(Cl)c3)c2O)cc1N1CCCN(C(C)(C)C)CC1
Key: 0.3 to 30 nM

Exercise: Give me measured GI50, please, for this compound: Cn1ccn(-c2ccc(-c3cc(F)cc(-c4cc(NC(=O)C5CC5)nc(N5CC[C@H](N)C5)c4)c3O)cc2Cl)c1=O
Key: 0.3 to 30 nM
